assay target: LRRK2 (Homo sapiens, UniProt Q5S007, G2019S)
Construct: purchased Invitrogen PV4882 (lot 567054A)
Sequence (Q5S007 whole entry G2019S): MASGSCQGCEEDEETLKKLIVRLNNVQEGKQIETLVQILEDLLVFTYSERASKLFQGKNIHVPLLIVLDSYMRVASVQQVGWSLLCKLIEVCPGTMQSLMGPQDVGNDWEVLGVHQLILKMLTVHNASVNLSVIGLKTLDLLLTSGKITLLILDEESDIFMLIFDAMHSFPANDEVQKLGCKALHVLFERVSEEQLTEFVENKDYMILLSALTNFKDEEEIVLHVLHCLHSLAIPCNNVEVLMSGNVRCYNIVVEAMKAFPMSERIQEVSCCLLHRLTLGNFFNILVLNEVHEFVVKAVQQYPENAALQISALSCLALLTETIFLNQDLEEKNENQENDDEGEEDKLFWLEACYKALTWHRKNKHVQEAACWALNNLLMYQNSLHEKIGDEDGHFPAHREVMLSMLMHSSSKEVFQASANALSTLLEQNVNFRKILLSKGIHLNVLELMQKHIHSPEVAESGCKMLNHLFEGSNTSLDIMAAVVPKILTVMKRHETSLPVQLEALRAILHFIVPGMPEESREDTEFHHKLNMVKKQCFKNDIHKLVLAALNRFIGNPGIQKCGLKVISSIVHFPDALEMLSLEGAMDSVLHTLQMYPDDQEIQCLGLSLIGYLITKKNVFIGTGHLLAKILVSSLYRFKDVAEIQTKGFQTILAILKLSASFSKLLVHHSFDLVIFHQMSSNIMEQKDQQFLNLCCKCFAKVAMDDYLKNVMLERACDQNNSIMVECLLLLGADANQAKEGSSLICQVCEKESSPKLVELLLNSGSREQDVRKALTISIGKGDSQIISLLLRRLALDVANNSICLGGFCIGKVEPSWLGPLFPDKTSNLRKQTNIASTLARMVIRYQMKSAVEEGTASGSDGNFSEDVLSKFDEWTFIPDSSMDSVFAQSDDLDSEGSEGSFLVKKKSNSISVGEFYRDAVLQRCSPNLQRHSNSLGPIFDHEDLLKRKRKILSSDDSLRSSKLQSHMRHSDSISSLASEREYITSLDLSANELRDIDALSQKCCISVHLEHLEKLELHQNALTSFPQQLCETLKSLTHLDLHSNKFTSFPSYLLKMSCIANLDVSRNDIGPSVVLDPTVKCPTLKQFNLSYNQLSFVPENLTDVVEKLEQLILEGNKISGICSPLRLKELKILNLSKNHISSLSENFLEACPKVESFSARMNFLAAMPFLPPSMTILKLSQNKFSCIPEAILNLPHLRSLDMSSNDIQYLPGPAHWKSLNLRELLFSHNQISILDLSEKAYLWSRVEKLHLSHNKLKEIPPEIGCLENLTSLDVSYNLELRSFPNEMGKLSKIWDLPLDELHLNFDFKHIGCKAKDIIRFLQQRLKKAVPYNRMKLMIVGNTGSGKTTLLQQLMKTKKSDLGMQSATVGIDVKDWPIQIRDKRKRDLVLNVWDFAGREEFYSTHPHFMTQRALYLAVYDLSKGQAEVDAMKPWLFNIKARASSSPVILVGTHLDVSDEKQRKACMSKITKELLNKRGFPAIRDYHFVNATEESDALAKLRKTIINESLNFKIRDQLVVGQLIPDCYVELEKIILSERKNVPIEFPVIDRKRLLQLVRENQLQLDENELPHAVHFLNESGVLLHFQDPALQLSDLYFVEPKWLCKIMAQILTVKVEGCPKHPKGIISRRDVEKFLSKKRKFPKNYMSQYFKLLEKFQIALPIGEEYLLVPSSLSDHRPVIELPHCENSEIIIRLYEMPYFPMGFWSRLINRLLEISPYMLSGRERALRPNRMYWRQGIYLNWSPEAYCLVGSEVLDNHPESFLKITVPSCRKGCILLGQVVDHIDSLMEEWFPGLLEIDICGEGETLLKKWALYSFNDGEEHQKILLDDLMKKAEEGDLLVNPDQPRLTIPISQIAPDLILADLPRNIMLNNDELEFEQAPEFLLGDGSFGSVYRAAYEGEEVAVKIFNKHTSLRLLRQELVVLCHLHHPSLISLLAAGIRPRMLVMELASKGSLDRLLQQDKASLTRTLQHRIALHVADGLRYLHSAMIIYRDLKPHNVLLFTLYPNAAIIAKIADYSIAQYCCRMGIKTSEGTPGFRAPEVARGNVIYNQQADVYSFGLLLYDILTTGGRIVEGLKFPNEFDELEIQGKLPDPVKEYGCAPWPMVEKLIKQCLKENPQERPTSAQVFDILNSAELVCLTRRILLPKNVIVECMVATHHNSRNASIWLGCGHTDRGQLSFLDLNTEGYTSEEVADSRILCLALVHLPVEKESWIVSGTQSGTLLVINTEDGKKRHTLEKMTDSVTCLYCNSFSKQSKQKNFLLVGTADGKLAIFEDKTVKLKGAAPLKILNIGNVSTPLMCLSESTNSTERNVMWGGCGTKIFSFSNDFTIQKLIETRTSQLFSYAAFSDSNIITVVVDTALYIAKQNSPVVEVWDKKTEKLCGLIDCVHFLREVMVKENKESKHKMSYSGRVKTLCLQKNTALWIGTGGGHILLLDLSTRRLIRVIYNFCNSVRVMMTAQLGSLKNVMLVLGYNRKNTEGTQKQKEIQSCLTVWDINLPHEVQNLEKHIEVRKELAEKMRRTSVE
test summary: In Vitro LRRK2 Assay (LabChip 3000, fluorescently-labeled peptide substrate, ATP)
Assay type: biochemical
protocol conditions: read-out: LRRK2 Ki (KI), Table 8
readout type: Ki (nM)

Illustrative cases are given below, each with its answer.
- molecule: "CNc1nc(Nc2cnn(C)c2C2CCC2)ncc1C(F)(F)F"
  assay target: "LRRK2 (Homo sapiens, UniProt Q5S007, G2019S)"
  Ki [nM]: 11
- molecule: "CNc1nc(Nc2cn(S(=O)(=O)C3CC3)nc2C)ncc1C(F)(F)F"
  assay target: "LRRK2 (Homo sapiens, UniProt Q5S007, G2019S)"
  Ki [nM]: 2
- molecule: "CNc1nc(Nc2cn(C3C[C@@H]4CC[C@@H](C3)O4)nc2C)ncc1C(F)(F)F (stereo partly shown)"
  assay target: "LRRK2 (Homo sapiens, UniProt Q5S007, G2019S)"
  Ki [nM]: 113
- molecule: "CNc1nc(Nc2cnn([C@@H]3CCN(C4COC4)C3)c2C)ncc1C(F)(F)F"
  assay target: "LRRK2 (Homo sapiens, UniProt Q5S007, G2019S)"
  Ki [nM]: 3.3
- molecule: "Cc1c(Nc2ncc(Cl)c(NCC(F)F)n2)cnn1C"
  assay target: "LRRK2 (Homo sapiens, UniProt Q5S007, G2019S)"
  Ki [nM]: 7

(1) CNc1nc(Nc2cn(C3CCN(CCF)CC3)nc2C)ncc1C(F)(F)F
(2) CNc1nc(Nc2cn(C(F)F)nc2C)ncc1C(F)(F)F
(3) CCCCn1ncc(Nc2ncc(C(F)(F)F)c(NC)n2)c1C
(4) CNc1nc(Nc2cnn(S(C)(=O)=O)c2C)ncc1C(F)(F)F
## Task Order these by Ki, descending, and give the full ranking. Please list each label once, in the requested order.
## Result 1, 4, 2, 3
(1: 28.3 nM, 4: 10 nM, 2: 5.5 nM, 3: 0.3 nM)

(1) CCNc1nc(Nc2cnn(-c3ccc(S(C)(=O)=O)cc3)c2C)ncc1C(F)(F)F
(2) CNc1nc(Nc2cnn(C3CCOC3)c2C)ncc1C(F)(F)F (stereo not shown)
(3) CNc1nc(Nc2cn(C(C)(C)c3ccnn3C)nc2C)ncc1C(F)(F)F
(4) CCNc1nc(Nc2cn(-c3ccc(S(C)(=O)=O)cc3)nc2C)ncc1C(F)(F)F
(5) CNc1nc(Nc2cnn(-c3cc(F)cc(F)c3)c2C)ncc1Br
## Task Order these by Ki, descending, and give the full ranking. Please list each label once, in the requested order.
## Result 5, 2, 4, 3, 1

(A) CCNc1nc(Nc2cn(S(C)(=O)=O)nc2C)ncc1C(F)(F)F
(B) CNc1nc(Nc2cn(C)nc2C2CC2)ncc1C(F)(F)F
(C) CNc1nc(Nc2cnn(Cc3cnccn3)c2C)ncc1C(F)(F)F
(D) CNc1nc(Nc2cnn(C)c2NC)ncc1C(F)(F)F
## Task Sort ascending by Ki. Please list each label once, in the requested order.
## Result A, C, B, D
(A: 0.3 nM, C: 2.6 nM, B: 6.7 nM, D: 52.2 nM)

----------
assay target: LRRK2 (Homo sapiens, UniProt Q5S007, G2019S)
Construct: purchased Invitrogen PV4882 (lot 567054A)
test summary: In Vitro LRRK2 Assay (LabChip 3000, fluorescently-labeled peptide substrate, ATP)
Assay type: biochemical
protocol conditions: Table 10; LRRK2 Ki (micromolar); read-out: LRRK2 Ki (KI)
readout type: Ki (nM)

Illustrative cases are given below, each with its answer.
- smiles entry: "CNc1nc(Nc2cn([C@@H](C)C(=O)N3CCCC3)nc2C)ncc1C(F)(F)F"
  Ki (nM): 22
- smiles entry: "CNc1nc(Nc2cnn([C@@H](C)C(=O)N(C)C)c2C)ncc1C(F)(F)F"
  Ki (nM): 30
- smiles entry: "CNc1nc(Nc2cnn(C3(C#N)CCC3)c2C)ncc1C(F)(F)F"
  Ki (nM): 2.4
- smiles entry: "CCNC(=O)C(C)(C)n1cc(Nc2ncc(C(F)(F)F)c(NC)n2)c(C)n1"
  Ki (nM): 9.5
- smiles entry: "CCNC(=O)C(C)(C)n1ncc(Nc2ncc(C(F)(F)F)c(NC)n2)c1Cl"
  Ki (nM): 35.5
- smiles entry: "CNc1nc(Nc2cn(C3(C#N)CC3)nc2C)ncc1C(F)(F)F"
  Ki (nM): 3.7

(a) COC(=O)C(C)(C)n1ncc(Nc2ncc(Cl)c(OC)n2)c1C
(b) CCNC(=O)C1(n2cc(Nc3ncc(C(F)(F)F)c(NC)n3)c(C)n2)CCC1
(c) CNc1nc(Nc2cnn(C(C)(C)C(=O)N3CCCC3)c2C)ncc1C(F)(F)F
(d) CNC(=O)C(C)(C)n1cc(Nc2ncc(C(F)(F)F)c(NC3CC3)n2)c(C)n1
## Task Order these by Ki, descending, and give the full ranking. Please list each label once, in the requested order.
## Result c, b, a, d
(c: 404 nM, b: 24 nM, a: 12.2 nM, d: 1.3 nM)

(P) CCc1nn(C(C)(C)C#N)cc1Nc1ncc(C(F)(F)F)c(NC)n1
(Q) CNC(=O)C(C)(C)n1cc(Nc2ncc(C(F)(F)F)c(NC)n2)c(C)n1
(R) CNc1nc(Nc2cn(C(C)(C)C#N)nc2C)ncc1Cl
## Task Order these by Ki, descending, and give the full ranking. Please list each label once, in the requested order.
## Result Q, P, R

----------
assay target: LRRK2 (Homo sapiens, UniProt Q5S007, G2019S)
Construct: purchased Invitrogen PV4882 (lot 567054A)
test summary: In Vitro LRRK2 Assay (LabChip 3000, fluorescently-labeled peptide substrate, ATP)
Assay type: biochemical
protocol conditions: Table 9; LRRK2 Ki (micromolar); read-out: LRRK2 Ki (KI)
Procedure: This assay was used to determine a compound's potency in inhibiting activity of LRRK2 by determining, Kiapp, IC50, or percent inhibition values. […] The relative amounts of each were quantitated by fluorescence intensity. LRRK2 Ki was determined according to the equation: Y=V0*(1−(x+Ki*(1+S/Km)+Et)/(2*Et)−(((x+Ki*(1+S/Km)+Et)^2−(4*Et*x))^0.5)/(2*Et))). […] The plate was incubated for 2 hours in the dark. […] Results were read on the LabChip 3000. […]
pKi: −log10 of the molar value.
readout type: pKi

Illustrative cases are given below, each with its answer.
- smiles entry: "CNc1nc(Nc2cn(-c3cc(F)cc(F)c3)nc2C)ncc1C#N"
  pKi: 8.74
- smiles entry: "CNc1nc(Nc2cn(-c3ccc(Cl)cc3)nc2C)ncc1C#N"
  pKi: 7.09
- smiles entry: "CNc1nc(Nc2cn(-c3ccccn3)nc2C)ncc1C#N"
  pKi: 7.38

(1) CCNc1nc(Nc2cnn(C)c2C)ncc1C#N
(2) Cc1nn(C2COC2)cc1Nc1ncc(C#N)c(NCC(F)(F)F)n1
(3) CNc1nc(Nc2cnn(-c3cc(F)cc(F)c3)c2C)ncc1C#N
(4) CCCn1cc(Nc2ncc(C#N)c(NC)n2)c(C)n1
## Task Order these by pKi, descending, and give the full ranking. Please list each label once, in the requested order.
## Result 4, 1, 2, 3

(1) CNc1nc(Nc2cnn(C3CCC(F)(F)CC3)c2C)ncc1C#N
(2) CNc1nc(Nc2cnn(C(F)F)c2C)ncc1C#N
(3) CNc1nc(Nc2cn(C3COC3)nc2C)ncc1C#N
## Task Order these by pKi, descending, and give the full ranking. Please list each label once, in the requested order.
## Result 1, 2, 3

----------
assay target: LRRK2 (Homo sapiens, UniProt Q5S007, G2019S)
Construct: purchased Invitrogen PV4882 (lot 567054A)
test summary: In Vitro LRRK2 Assay (LabChip 3000, fluorescently-labeled peptide substrate, ATP)
Assay type: biochemical
protocol conditions: read-out: LRRK2 Ki (KI), Table 8
Experimental: This assay was used to determine a compound's potency in inhibiting activity of LRRK2 by determining, Kiapp, IC50, or percent inhibition values. […] The relative amounts of each were quantitated by fluorescence intensity. LRRK2 Ki was determined according to the equation: Y=V0*(1−(x+Ki*(1+S/Km)+Et)/(2*Et)−(((x+Ki*(1+S/Km)+Et)^2−(4*Et*x))^0.5)/(2*Et))). […] The plate was incubated for 2 hours in the dark. […] Results were read on the LabChip 3000. […]
readout type: Ki (nM)

(P) CNc1nc(Nc2cn(C3CCS(=O)(=O)CC3)nc2C)ncc1C(F)(F)F [Example 273]
(Q) CNc1nc(Nc2cnn(Cc3ncccn3)c2C)ncc1C(F)(F)F [Example 315]
(R) CNc1nc(Nc2cn(-c3ccc(S(C)(=O)=O)cc3)nc2C)ncc1C(F)(F)F [Example 124]
(S) CCNc1nc(Nc2ccnn2C)ncc1C(F)(F)F [Example 176]
## Task hey, can you rank those compounds up there by Ki? biggest number first please Please list each label once, in the requested order.
## Result P, S, Q, R
